Recorded values, source ChEMBL document CHEMBL5634085.

Reported IC50 values for the following compounds.
tested on: Leishmania amazonensis; assay: Antileishmanial activity against Leishmania amazonensis IFLA/BR/1967/PH8 amastigotes infected in mouse peritoneal macrophage assessed as inhibition of parasite growth pre-infected in cells for 4 hrs followed by compound addition and measured after 24 hrs by Giemsa staining based analysis; format: functional, organism-based; conditions: IFLA/BR/1967/PH8, Peritoneal macrophage
// return numeric value only (unit: µM, not printed)

O=[N+]([O-])c1nccn1Cc1cc(-c2ccccn2)no1    37.8

Any idea what IC50 came out for `O=[N+]([O-])c1nccn1Cc1cc(-c2ccc(F)c(F)c2)no1` on Leishmania amazonensis? 17.7

Any idea what IC50 came out for `COc1cc(-c2cc(Cn3ccnc3[N+](=O)[O-])on2)cc(OC)c1OC` on Leishmania amazonensis? 14.6

* * *

experiment: Cytotoxicity against monkey LLC-MK2 cells incubated for 72 hrs by MTT assay; type: toxicity, cell-based, Macaca mulatta; conditions: rhesus monkey
quantity.name: CC50 at 72 h

Below, each entry is followed by its recorded CC50 at 72 h result.
COc1ccc(-c2cc(Cn3ccnc3[N+](=O)[O-])on2)cc1Cl    > 50 µM
COc1cc(OC)c(Cl)c(-c2cc(Cn3ccnc3[N+](=O)[O-])on2)c1    > 50 µM
CCN1CCN(c2ccc(-c3cc(Cn4ccnc4[N+](=O)[O-])on3)cc2)CC1    > 50 µM
O=[N+]([O-])c1nccn1Cc1cc(-c2ccc(C(F)(F)F)cc2)no1    18.9 µM

What does the data say about its CC50 at 72 h? Entry: `O=[N+]([O-])c1nccn1Cc1cc(-c2ccc(Cl)c(Cl)c2)no1` > 50 µM

What does the data say about its CC50 at 72 h? Entry: `CSc1ccc(-c2cc(Cn3ccnc3[N+](=O)[O-])on2)cc1` > 50 µM

What does the data say about its CC50 at 72 h? Entry: `O=[N+]([O-])c1cccc(-c2cc(Cn3ccnc3[N+](=O)[O-])on2)c1` > 50 µM

What does the data say about its CC50 at 72 h? Entry: `CC(C)N1CCN(c2ccc(-c3cc(Cn4ccnc4[N+](=O)[O-])on3)cc2)CC1` > 50 µM

What does the data say about its CC50 at 72 h? Entry: `C[C@@H]1[C@H](O)[C@@H](C)/C=C/C=C/C=C/C=C/C=C/C=C/C=C/[C@H](O[C@@H]2O[C@H](C)[C@@H](O)[C@H](N)[C@@H]2O)C[C@@H]2O[C@](O)(C[C@@H](O)C[C@@H](O)[C@H](O)CC[C@@H](O)C[C@@H](O)CC(=O)O[C@H]1C)C[C@H](O)[C@H]2C(=O)O` 22.8 µM

What does the data say about its CC50 at 72 h? Entry: `Cc1ccc(-c2cc(Cn3ccnc3[N+](=O)[O-])on2)cc1[N+](=O)[O-]` > 50 µM

What does the data say about its CC50 at 72 h? Entry: `COc1ccc(-c2cc(Cn3ccnc3[N+](=O)[O-])on2)cc1OC` > 50 µM

* * *

test: Selectivity index, ratio of CC50 for cytotoxicity against monkey LLC-MK2 cells to IC50 for antileishmanial activity against Leishmania amazonensis IFLA/BR/1967/PH8 amastigotes infected in mouse peritoneal macrophage; assay type: toxicity, cell-based; conditions: read-out: Ratio CC50/IC50
Reported selectivity ratio values for the following compounds.

O=[N+]([O-])c1nccn1Cc1cc(-c2ccc(C(F)(F)F)cc2)no1    1
O=[N+]([O-])c1nccn1Cc1cc(-c2cccnc2)no1    > 0.7
COc1cccc(-c2cc(Cn3ccnc3[N+](=O)[O-])on2)c1    > 4
O=[N+]([O-])c1nccn1Cc1cc(-c2ccc(Cl)cc2)no1    1.8
O=[N+]([O-])c1nccn1Cc1cc(-c2ccncc2)no1    > 3
Cc1ccc(-c2cc(Cn3ccnc3[N+](=O)[O-])on2)cc1    > 1.9
O=[N+]([O-])c1nccn1Cc1cc(-c2ccc(N3CCNCC3)cc2)no1    > 19.8
O=[N+]([O-])c1cccc(-c2cc(Cn3ccnc3[N+](=O)[O-])on2)c1    > 1.4
O=[N+]([O-])c1nccn1Cc1cc(-c2ccc(N3CCCCCC3)cc2)no1    > 1.9
CN(C)c1ccc(-c2cc(Cn3ccnc3[N+](=O)[O-])on2)cc1    > 1.5

Proceeding to the next compound to report its selectivity ratio.
What does the data say about its selectivity ratio? Entry: `O=[N+]([O-])c1nccn1Cc1cc(-c2ccc(N3CCCCC3)cc2)no1` > 1.6

* * *

assay: Selectivity index, ratio of CC50 for monkey LLC-MK2 cells to IC50 for Trypanosoma cruzi Tulahuen lacZ expressing beta-galactosidase amastigotes infected monkey LLC-MK2 cells; assay type: toxicity; conditions: read-out: Ratio CC50/IC50
Reported selectivity ratio values for the following compounds.

Below, each entry is followed by its recorded selectivity ratio result.
CN1CCN(c2ccc(-c3cc(Cn4ccnc4[N+](=O)[O-])on3)cc2)CC1    > 125
O=[N+]([O-])c1nccn1Cc1cc(-c2ccc(C(F)(F)F)cc2)no1    0.8
COc1ccccc1-c1cc(Cn2ccnc2[N+](=O)[O-])on1    > 10.9
O=[N+]([O-])c1nccn1Cc1cc(-c2ccc(OC(F)(F)F)cc2)no1    > 3.3

Proceeding to the next compound to report its selectivity ratio.
What does the data say about its selectivity ratio? Entry: `O=[N+]([O-])c1nccn1Cc1cc(-c2ccc(O)cc2)no1` > 87.7

* * *

test system: Leishmania amazonensis; assay: Antileishmanial activity against Leishmania amazonensis IFLA/BR/1967/PH8 amastigotes infected in mouse peritoneal macrophage assessed as inhibition of parasite growth pre-infected in cells for 4 hrs followed by compound addition and measured after 24 hrs by Giemsa staining based analysis; assay type: functional, organism-based; conditions: IFLA/BR/1967/PH8, Peritoneal macrophage
We label by threshold. Values of IC50 strictly beneath 30 µM are Criterion met. Values of 30 µM and up are Criterion not met.

Examples from the recorded data:
O=[N+]([O-])c1nccn1Cc1cc(-c2ccc(N3CCN(c4ccccc4)CC3)cc2)no1    Criterion not met
O=[N+]([O-])c1nccn1Cc1cc(-c2ccc(N3CCOCC3)cc2)no1    Criterion not met
COc1ccc(-c2cc(Cn3ccnc3[N+](=O)[O-])on2)cc1Cl    Criterion not met
O=[N+]([O-])c1nccn1Cc1cc(-c2ccc(Cl)cc2Cl)no1    Criterion not met
COc1cc(OC)cc(-c2cc(Cn3ccnc3[N+](=O)[O-])on2)c1    Criterion met

Just wondering, is IC50 of `O=[N+]([O-])c1nccn1Cc1cc(-c2ccncc2)no1` below 30 µM? Criterion met

Just wondering, is IC50 of `C[C@@H]1[C@H](O)[C@@H](C)/C=C/C=C/C=C/C=C/C=C/C=C/C=C/[C@H](O[C@@H]2O[C@H](C)[C@@H](O)[C@H](N)[C@@H]2O)C[C@@H]2O[C@](O)(C[C@@H](O)C[C@@H](O)[C@H](O)CC[C@@H](O)C[C@@H](O)CC(=O)O[C@H]1C)C[C@H](O)[C@H]2C(=O)O` below 30 µM? Criterion met

Just wondering, is IC50 of `O=[N+]([O-])c1nccn1Cc1cc(-c2ccc(O)cc2)no1` below 30 µM? Criterion met

Just wondering, is IC50 of `N#Cc1ccc(-c2cc(Cn3ccnc3[N+](=O)[O-])on2)cc1` below 30 µM? Criterion not met

Just wondering, is IC50 of `O=[N+]([O-])c1nccn1Cc1cc(-c2ccc(Br)cc2)no1` below 30 µM? Criterion met

Just wondering, is IC50 of `O=[N+]([O-])c1nccn1Cc1cc(-c2ccc(Cl)cc2)no1` below 30 µM? Criterion met
